Consider the following molecules; for each one, report its logD.
- assay-notes: physchem
- conditions: 1-octanol/aqueous buffer, pH 7.4
Give bare numbers.

Examples from the recorded data:
molecule: COc1nc(NCCNCCCF)ccc1[C@@H]1c2[nH]c3ccccc3c2C[C@@H](C)N1CC(C)(F)F [Example 78]
logD: 4
--
molecule: COc1cc(OCCNCCCF)ncc1[C@@H]1c2[nH]c3ccccc3c2C[C@@H](C)N1CC(F)(F)F [Example 41]
logD: 3.2
--
molecule: C[C@@H]1Cc2c([nH]c3ccccc23)[C@@H](c2cnc(OCCNCCCF)cn2)N1CC(C)(C)F [Example 38]
logD: 3.3
--
molecule: C[C@@H]1Cc2c([nH]c3ccccc23)[C@@H](c2cnc(OCCNCCCF)cc2F)N1CC1(F)COC1 [Example 62]
logD: 2.7

Now, please, on to the next molecule.
In plain terms, COc1nc(NCCNCCCF)ccc1[C@@H]1c2[nH]c3ccccc3c2C[C@@H](C)N1CC(F)F [Example 76] has a documented logD of 3

---

- target-desc: Estrogen Receptor (ERα) in MCF-7 cells (Homo sapiens (Human), UniProt P03372)
- Sequence (P03372 whole entry): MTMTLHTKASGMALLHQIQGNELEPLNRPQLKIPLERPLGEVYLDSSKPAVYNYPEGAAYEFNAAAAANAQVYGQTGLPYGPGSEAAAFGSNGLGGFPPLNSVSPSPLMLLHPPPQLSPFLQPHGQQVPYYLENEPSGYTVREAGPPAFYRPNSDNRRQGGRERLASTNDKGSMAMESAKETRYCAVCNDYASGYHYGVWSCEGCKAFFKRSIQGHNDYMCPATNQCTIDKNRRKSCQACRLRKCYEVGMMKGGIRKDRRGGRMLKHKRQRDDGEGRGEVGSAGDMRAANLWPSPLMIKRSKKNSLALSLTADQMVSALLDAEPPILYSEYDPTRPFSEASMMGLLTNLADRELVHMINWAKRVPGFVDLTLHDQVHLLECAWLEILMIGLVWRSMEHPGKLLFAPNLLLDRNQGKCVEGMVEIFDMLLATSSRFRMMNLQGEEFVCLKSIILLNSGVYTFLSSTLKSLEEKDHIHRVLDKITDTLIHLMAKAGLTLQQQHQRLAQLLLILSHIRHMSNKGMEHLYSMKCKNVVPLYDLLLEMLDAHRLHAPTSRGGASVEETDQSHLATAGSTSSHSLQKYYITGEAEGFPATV
- assay-notes: MCF-7 ER down-regulation assay (immuno-fluorescence)
- conditions: 18-22 hours incubation
Each record is given YES if its reported IC50 is strictly below 0.3 nM. Records at or above 0.3 nM are given NO.

compound: C[C@@H]1Cc2c([nH]c3ccccc23)[C@@H](c2c(F)cc(OCC(CO)NCCCF)cc2F)N1CC(C)(C)F (single isomer, unassigned) [Example 52]
assigned-class: YES

Input line: Given C[C@@H]1Cc2c([nH]c3ccccc23)[C@@H](c2ccc(OCCNCCCF)cc2F)N1CC1(F)CC1 [Example 21] , is recorded IC50 strictly lower than 0.3 nM?
Output line: NO

---

- assay-notes: physchem
- conditions: 1-octanol/aqueous buffer, pH 7.4
Consider the following molecules; for each one, report its logD.

molecule: Cc1cc(OCCNCCCF)ncc1[C@@H]1c2[nH]c3ccccc3c2C[C@@H](C)N1CC(F)F
logD: > 3.6

molecule: C[C@@H]1Cc2c([nH]c3ccccc23)[C@@H](c2c(F)cc(OCC(CO)NCCCF)cc2F)N1CC(C)(C)F (stereo partly drawn)
logD: > 3.9

Now, please, on to the next molecule.
In plain terms, C[C@@H]1Cc2c([nH]c3ccccc23)[C@@H](c2c(F)cc(OCCNCCC(F)F)cc2F)N1CC(C)(C)F has a documented logD of > 4.3

---

- target-desc: Estrogen Receptor (ERα) in MCF-7 cells (Homo sapiens (Human), UniProt P03372)
- assay-notes: MCF-7 ER down-regulation assay (immuno-fluorescence)
- conditions: 18-22 hours incubation
Consider the following compounds; for each one, report its log10 of IC50.
Plainly stated, the numbers are log10 of IC50 given in nM.

Examples from the recorded data:
compound: COc1cc(OCCNCCCF)ncc1[C@@H]1c2[nH]c3ccccc3c2C[C@@H](C)N1CC(F)F [Example 40]
measure-name: log10 of IC50
meas-value: -0.77
--
compound: C[C@@H]1Cc2c([nH]c3ccccc23)[C@@H](c2ccc(OCCNCCCF)cn2)N1CC1(F)COC1 [Example 32]
measure-name: log10 of IC50
meas-value: 1.61
--
compound: C[C@@H]1Cc2c([nH]c3ccccc23)[C@@H](c2ccc(OCCNCCCF)cc2)N1CC(C)(F)F [Example 57]
measure-name: log10 of IC50
meas-value: -0.57
--
compound: C[C@@H]1Cc2c([nH]c3ccccc23)[C@@H](c2c(F)cc(OCC(CO)NCCCF)cc2F)N1CC(C)(C)F (stereo partly shown) [Example 20]
measure-name: log10 of IC50
meas-value: -0.59
--
compound: COc1nc(OCCNCCCF)ccc1[C@@H]1c2[nH]c3ccccc3c2C[C@@H](C)N1CC(C)(F)F [Example 77]
measure-name: log10 of IC50
meas-value: -0.15
--
compound: C[C@@H]1Cc2c([nH]c3ccccc23)[C@@H](c2c(F)cc(NCCNCCCF)cc2F)N1CC1(F)COC1 [Example 44]
measure-name: log10 of IC50
meas-value: -0.77

Now, please, on to the next compound.
In plain terms, C[C@@H]1Cc2c([nH]c3ccccc23)[C@@H](c2ncc(OCCNCCCF)cn2)N1CC(C)(C)F [Example 39] has a documented log10 of IC50 of 2.36
